# Assay Summary: Oral bioavailability in Sprague-Dawley rat measured at 12.5 mg/kg for 1 to 24 hrs by HPLC-MS/MS analysis
# Assay type: ADME, organism-based
# Condition Details: in vivo, time 1-24 hrs
Measurement Label: bioavailability (%)
Give your result in % as a bare value.

// query Respond only with bioavailability recorded for C[C@]1(O)C[C@@H](c2nc(-c3ccc4ccc(-c5ccccc5)nc4c3)c3c(N)nccn32)C1 [LINSITINIB]
// result 74

* * *

# Assay Summary: Elimination half life in Beagle dog measured at 2.5 mg/kg, iv for 1 to 24 hrs by HPLC-MS/MS analysis
# Format: ADME, organism-based, Canis lupus familiaris
# Condition Details: in vivo, time 1-24 hrs, read-out: beta t1/2 (converted)
Measurement Label: half-life (h)
Response body: numeric value in h, unit text excluded.

// query Tell me measured half-life for "C[C@]1(O)C[C@@H](c2nc(-c3ccc4ccc(-c5ccccc5)nc4c3)c3c(N)nccn32)C1" please.
// result 1.18
